Hey, just so you know, these numbers are from patent US11168073B2.

tested on: recombinant human DAO (diamine oxidase) (Homo sapiens, UniProt P19801)
Construct: purchased R&D systems
protocol description: Activity evaluation on recombinant human DAO (Amplex Red/HRP-coupled assay, 1 mM putrescine substrate)
Format: biochemical
conditions: 1 mM putrescine, read-out: Inhibitory Activity (IC50, nM) DAO
Procedure: The compounds according to the present technology were evaluated in terms of activity on recombinant human VAP-1 (R&D systems) by measuring the level of hydrogen peroxide in horseradish peroxidase (HRP)-coupled reaction using Amplex Red Hydrogen Peroxide Assay Kit (Molecular Probes, Invitrogen, USA). […] The inhibitory effect of the compounds was measured as a decrease (%) in the signal rate as compared to the control group without any inhibitor (only diluted DMSO). […]
Where a name gives a salt, the structure may show the parent alone.
reported property: IC50 (nM)

(P) CN(C)c1ncc(-c2ccc(Cn3cnn(CC(CN)=C(F)F)c3=O)s2)cc1F [Example 115, Trifluoroacetate]
(Q) CS(=O)(=O)c1ccc(-c2ccnc(-n3cnn(CC(CN)=C(F)F)c3=O)c2)cc1 [Example 54, Trifluoroacetate]
(R) NCC(Cn1ncn(-c2ccnc(Br)c2)c1=O)=C(F)F [Example 10, Trifluoroacetate]
Sort the items above on IC50, descending. # respond with the labels, arranged in the requested order
P, R, Q
(P: 11000 nM, R: 1200 nM, Q: 480 nM)

====

tested on: recombinant human DAO (diamine oxidase) (Homo sapiens, UniProt P19801)
Construct: purchased R&D systems
Sequence (P19801 20-751): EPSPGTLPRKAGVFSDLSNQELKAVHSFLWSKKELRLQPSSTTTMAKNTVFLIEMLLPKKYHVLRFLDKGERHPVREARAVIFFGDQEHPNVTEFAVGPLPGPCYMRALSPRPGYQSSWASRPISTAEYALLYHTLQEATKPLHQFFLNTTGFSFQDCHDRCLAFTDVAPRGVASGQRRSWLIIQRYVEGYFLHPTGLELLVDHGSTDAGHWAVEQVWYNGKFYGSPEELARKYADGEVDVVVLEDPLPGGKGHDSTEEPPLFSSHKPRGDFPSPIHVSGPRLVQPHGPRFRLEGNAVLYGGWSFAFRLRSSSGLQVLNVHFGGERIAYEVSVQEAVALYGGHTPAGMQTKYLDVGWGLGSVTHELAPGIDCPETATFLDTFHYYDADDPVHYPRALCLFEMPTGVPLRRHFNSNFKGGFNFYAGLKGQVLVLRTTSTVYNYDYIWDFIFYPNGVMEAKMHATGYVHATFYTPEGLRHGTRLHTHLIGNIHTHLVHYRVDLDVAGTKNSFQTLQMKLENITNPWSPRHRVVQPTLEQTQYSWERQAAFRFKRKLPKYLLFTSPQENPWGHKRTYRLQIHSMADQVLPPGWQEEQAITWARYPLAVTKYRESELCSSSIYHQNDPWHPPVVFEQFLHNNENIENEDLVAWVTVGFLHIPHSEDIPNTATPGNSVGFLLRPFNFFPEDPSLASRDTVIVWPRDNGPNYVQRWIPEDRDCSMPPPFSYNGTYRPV
protocol description: Activity evaluation on recombinant human DAO (Amplex Red/HRP-coupled assay, 1 mM putrescine substrate)
Format: biochemical
conditions: 1 mM putrescine, read-out: Inhibitory Activity (IC50, nM) DAO
Counter-ions that a name gives are not always drawn.
reported property: IC50 (nM)

Reference set, count: 3
>  <compound>
CS(=O)(=O)c1ccc(-c2cnc(-n3cnn(CC(CN)=C(F)F)c3=O)cn2)cc1 [Example 89, Trifluoroacetate]

>  <unit info>
nM

>  <IC50>
2

$$$$
>  <compound>
CN(C)c1ccc(-c2cccc(-n3cnn(CC(CN)=C(F)F)c3=O)c2)cn1 [Example 20, Trifluoroacetate]

>  <unit info>
nM

>  <IC50>
350

$$$$
>  <compound>
Cc1cc(-c2ccc(N3CCNCC3)cc2)sc1Cn1cnn(CC(CN)=C(F)F)c1=O [Example 155, Ditrifluoroacetate]

>  <unit info>
nM

>  <IC50>
50000

$$$$

(I) Cc1cc(-n2cnn(CC(CN)=C(F)F)c2=O)cnc1-c1ccc2c(c1)CCC(=O)N2C [Example 81, Trifluoroacetate]
(II) NCC(Cn1ncn(-c2ncc(Br)cc2F)c1=O)=C(F)F [Example 14, Trifluoroacetate]
Which is greater in IC50, the first item I or the second item II ? Indicate your choice by writing its label.
II

====

tested on: recombinant human MAO-B (monoamine oxidase-B) (Homo sapiens, UniProt P27338)
Construct: purchased Sigma-Aldrich
Sequence (P27338 whole entry): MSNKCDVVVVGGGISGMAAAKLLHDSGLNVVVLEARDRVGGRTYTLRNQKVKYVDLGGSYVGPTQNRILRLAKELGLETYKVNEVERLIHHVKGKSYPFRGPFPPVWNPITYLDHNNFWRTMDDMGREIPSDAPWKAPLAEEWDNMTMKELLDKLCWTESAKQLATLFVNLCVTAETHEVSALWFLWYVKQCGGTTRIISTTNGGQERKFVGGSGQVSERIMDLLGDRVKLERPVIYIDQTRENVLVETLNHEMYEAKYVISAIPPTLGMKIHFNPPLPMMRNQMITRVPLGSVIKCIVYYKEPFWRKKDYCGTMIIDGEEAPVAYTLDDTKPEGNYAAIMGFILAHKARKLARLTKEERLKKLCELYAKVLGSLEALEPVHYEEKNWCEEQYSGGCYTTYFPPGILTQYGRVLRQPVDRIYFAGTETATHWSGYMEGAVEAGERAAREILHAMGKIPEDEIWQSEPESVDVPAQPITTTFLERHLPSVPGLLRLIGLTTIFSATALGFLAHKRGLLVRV
protocol description: Activity evaluation on recombinant human MAO-B (Amplex Red/HRP-coupled assay, 1 mM benzylamine substrate)
Format: biochemical
conditions: 1 mM benzylamine substrate, read-out: Inhibitory Activity (IC50, nM) MAO-B
Where a name gives a salt, the structure may show the parent alone.
reported property: IC50 (nM)

(1) NCC(Cn1ncn(Cc2sc(-c3ccc4c(c3)OCO4)cc2F)c1=O)=C(F)F [Example 300, Trifluoroacetate]
(2) Cc1cc(-c2ccc3ocnc3c2)cnc1-n1cnn(CC(CN)=C(F)F)c1=O [Example 229, Trifluoroacetate]
(3) NCC(Cn1ncn(Cc2ccc(-c3cccc(-c4nc[nH]n4)c3)s2)c1=O)=C(F)F [Example 185, Trifluoroacetate]
(4) NCC(Cn1ncn(Cc2cc(-c3ccc4c(c3)CCC(=O)N4)cs2)c1=O)=C(F)F [Example 192, Trifluoroacetate]
Sort the items above on IC50, descending. # respond with the labels, arranged in the requested order
4, 3, 1, 2
(4: 56000 nM, 3: 28000 nM, 1: 11100 nM, 2: 4100 nM)

====

tested on: recombinant human VAP-1 (Homo sapiens)
Construct: purchased R&D systems
Sequence (Q16853 whole entry): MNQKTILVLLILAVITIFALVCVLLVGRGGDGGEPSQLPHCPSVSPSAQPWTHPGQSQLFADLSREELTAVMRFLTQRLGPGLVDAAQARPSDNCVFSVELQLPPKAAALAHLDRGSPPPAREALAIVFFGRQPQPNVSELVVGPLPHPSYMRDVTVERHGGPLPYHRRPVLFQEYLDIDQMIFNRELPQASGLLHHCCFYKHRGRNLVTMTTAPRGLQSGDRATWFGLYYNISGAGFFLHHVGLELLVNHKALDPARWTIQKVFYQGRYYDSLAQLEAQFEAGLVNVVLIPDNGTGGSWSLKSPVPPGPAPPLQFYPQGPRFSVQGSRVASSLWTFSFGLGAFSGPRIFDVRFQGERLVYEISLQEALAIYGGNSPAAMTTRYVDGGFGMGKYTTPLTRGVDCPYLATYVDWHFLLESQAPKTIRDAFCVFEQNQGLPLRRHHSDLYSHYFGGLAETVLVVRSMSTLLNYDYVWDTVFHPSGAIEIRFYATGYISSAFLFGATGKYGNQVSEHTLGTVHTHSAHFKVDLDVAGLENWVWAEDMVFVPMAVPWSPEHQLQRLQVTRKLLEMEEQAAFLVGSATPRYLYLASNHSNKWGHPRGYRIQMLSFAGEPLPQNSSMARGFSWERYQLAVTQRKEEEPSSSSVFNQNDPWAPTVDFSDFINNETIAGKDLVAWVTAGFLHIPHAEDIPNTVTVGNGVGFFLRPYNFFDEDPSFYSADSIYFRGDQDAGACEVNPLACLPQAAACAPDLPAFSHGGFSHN
protocol description: Activity evaluation on recombinant human VAP-1 (Amplex Red/HRP-coupled hydrogen peroxide assay, benzylamine substrate)
Assay type: biochemical
conditions: recombinant human VAP-1; 30 min preincubation at 37° C.; 1 mM benzylamine; read-out: Inhibitory Activity (IC50, nM) human VAP-1
Method: The compounds according to the present technology were evaluated in terms of activity on recombinant human VAP-1 (R&D systems) by measuring the level of hydrogen peroxide in horseradish peroxidase (HRP)-coupled reaction using Amplex Red Hydrogen Peroxide Assay Kit (Molecular Probes, Invitrogen, USA). […] The inhibitory effect of the compounds was measured as a decrease (%) in the signal rate as compared to the control group without any inhibitor (only diluted DMSO). […]
Structures can show the parent of a compound that is named as a salt.
reported property: IC50 (nM)

(A) NCC(Cn1ncn(Cc2ccc(-c3cnc(N)nc3)s2)c1=O)=C(F)F [Example 116, Trifluoroacetate]
(B) NCC(Cn1ncn(-c2ccc(Br)cc2F)c1=O)=C(F)F [Example 5, Trifluoroacetate]
Which is greater in IC50, the first item A or the second item B ? Indicate your choice by writing its label.
B

(P) NCC(Cn1ncn(-c2ccc(-c3ccc(C(F)(F)F)nc3)c(F)c2)c1=O)=C(F)F [Example 26, Trifluoroacetate]
(Q) NCC(Cn1ncn(Cc2ccc(-c3ccc4c(c3)NC(=O)OC4)s2)c1=O)=C(F)F [Example 142, Trifluoroacetate]
Which has the smaller recorded IC50, P or Q ? Indicate your choice by writing its label.
Q

(a) CN(C)c1ccc(-c2cnc(-n3cnn(CC(CN)=C(F)F)c3=O)cn2)cn1 [Example 92, Trifluoroacetate]
(b) Cc1cc(-c2cnc(-n3cnn(CC(CN)=C(F)F)c3=O)c(F)c2)cc2c1NC(=O)CC2 [Example 86, Trifluoroacetate]
(c) NCC(Cn1ncn(Cc2cc(-c3ccc4c(c3)OCO4)cs2)c1=O)=C(F)F [Example 150, Trifluoroacetate]
(d) NCC(Cn1ncn(-c2ncc(-c3ccc(N4CCNCC4)cc3)cc2F)c1=O)=C(F)F [Example 83, Ditrifluoroacetate]
(e) Cc1cc(-n2cnn(CC(CN)=C(F)F)c2=O)cnc1-c1ccc(S(C)(=O)=O)cc1 [Example 76, Trifluoroacetate]
Rank ascending by IC50. # respond with the labels, arranged in the requested order
b, a, d, e, c

====

tested on: recombinant human VAP-1 (Homo sapiens)
Construct: purchased R&D systems
protocol description: Activity evaluation on recombinant human VAP-1 (Amplex Red/HRP-coupled hydrogen peroxide assay, benzylamine substrate)
Format: biochemical
conditions: recombinant human VAP-1, benzylamine substrate; read-out: Inhibitory Activity (IC50, nM) human VAP-1
Where a name gives a salt, the structure may show the parent alone.
reported property: IC50 (nM)

>  <compound>
CCn1cc(-c2cccc(-n3cnn(CC(CN)=C(F)F)c3=O)c2C)cn1 [Example 260, Trifluoroacetate]

>  <tested on>
recombinant human VAP-1 (Homo sapiens)

>  <recorded value>
3.7

$$$$

(1) Cc1cc(C#Cc2ccc(N(C)C)nc2)cnc1-n1cnn(CC(CN)=C(F)F)c1=O [Example 241, Trifluoroacetate]
(2) Cc1cc(-c2cccc(S(C)(=O)=O)c2)cnc1-n1cnn(CC(CN)=C(F)F)c1=O [Example 234, Trifluoroacetate]
(3) CN1Cc2cc(-c3ccc(Cn4cnn(CC(CN)=C(F)F)c4=O)s3)ccc2NC1=O [Example 182, Trifluoroacetate]
Rank ascending by IC50. # respond with the labels, arranged in the requested order
3, 2, 1

(A) CCn1cc(-c2cc(F)c(Cn3cnn(CC(CN)=C(F)F)c3=O)s2)ccc1=O [Example 299, Trifluoroacetate]
(B) Cc1c(-c2cnn(C(F)F)c2)cccc1-n1cnn(CC(CN)=C(F)F)c1=O [Example 261, Trifluoroacetate]
(C) Cc1cc(-c2ccc3nonc3c2)cnc1-n1cnn(CC(CN)=C(F)F)c1=O [Example 227, Trifluoroacetate]
Descending sort on IC50 required. # respond with the labels, arranged in the requested order
B, A, C
(B: 6.5 nM, A: 1.4 nM, C: 0.7 nM)

(A) NCC(Cn1ncn(Cc2ccc(-c3cnn(C(F)F)c3)s2)c1=O)=C(F)F [Example 183, Trifluoroacetate]
(B) Cc1c(-c2cccc(-c3nc[nH]n3)c2)cccc1-n1cnn(CC(CN)=C(F)F)c1=O [Example 263, Trifluoroacetate]
Which is greater in IC50, the first item A or the second item B ? Indicate your choice by writing its label.
B
(B: 29 nM, A: 1.4 nM)
